Record form. Attribute: survival at 48 h, 100 ug/ml. Fill in for each entry.
- methodNotes: Toxicity in zebra fish embryo assessed as survival rate at 100 ug/ml incubated for 48 hrs
- Set-up: species or system Danio rerio
- testParameters: zebrafish, zebrafish embryos, at 100 µg/mL
Give bare numbers, in %.

{"substanceSmiles": "CC[C@@](C)(NC(=O)[C@H](CC(C)C)NC(=O)CNC(=O)[C@@](C)(CC)NC(=O)C(C)(C)NC(=O)C(C)(C)NC(=O)C(C)(C)NC(=O)[C@@H](NC(C)=O)C(C)C)C(=O)NC(C)(C)C(=O)N1C[C@H](O)C[C@H]1C(=O)N[C@@H](CCC(N)=O)C(=O)N[C@](C)(CC)C(=O)N1C[C@H](O)C[C@H]1C(=O)NC(C)(C)C(=O)N[C@H](CO)Cc1ccccc1", "survival at 48 h, 100 ug/ml [%]": 75}

Proceeding to the next compound to report its survival at 48 h, 100 ug/ml.
Q) Provide only the value of recorded survival at 48 h, 100 ug/ml for CC[C@@](C)(NC(=O)[C@H](CC(C)C)NC(=O)CNC(=O)C(C)(C)NC(=O)C(C)(C)NC(=O)C(C)(C)NC(=O)C(C)(C)NC(=O)[C@@H](NC(C)=O)C(C)C)C(=O)NC(C)(C)C(=O)N1C[C@H](O)C[C@H]1C(=O)N[C@@H](CCC(N)=O)C(=O)N[C@](C)(CC)C(=O)N1C[C@H](O)C[C@H]1C(=O)NC(C)(C)C(=O)N[C@H](CO)Cc1ccccc1
A) 70
